Data provenance is ChEMBL document CHEMBL1201862.

# Tested on: KM12
# Procedure summary: NCI tumour cell line growth inhibition, 48 h
Calls of active or inactive are those of the source. No stated cut-off is given here; in the data, active = GI50 up to about 1.1 µM and inactive = higher. Where a SMILES comes first, the peptide text is derived from it. [ ]: non-standard residue; d: D form. The star is where a group is joined. NMeF = CN[C@@H](Cc1ccccc1)C(=O)O; NMeV = CN[C@H](C(=O)O)C(C)C; Boc = CC(C)(C)OC(=O)*; OBn = c1ccc(CO*)cc1
# key: entry, value: GI50

>>> measured_result("O=C1C/C(=C\\O)C(=O)c2ccccc2N1")
"> 100 µM (inactive)"

-- ask Need GI50 of `CCOC(=O)/C=C(/C(=O)OCC)n1ccc(=O)n(Cc2cnnn2COCCOC(C)=O)c1=O` , thanks.
-- reply 28.6 µM (inactive)

-- ask Need GI50 of CC(C)[C@@H](C(=O)N1CCC[C@H]1C(=O)OCc1ccccc1)N(C)C(=O)[C@H](C(C)C)N(C)C(=O)[C@H](Cc1ccccc1)N(C)C(=O)[C@H](NC(=O)OC(C)(C)C)C(C)C (Boc-[dV][NMeF][NMeV][NMeV]P-OBn) , thanks.
-- reply > 50 µM (inactive)

-- ask Need GI50 of `CC(=O)Nc1cc2ccc(=O)oc2cc1Cl` , thanks.
-- reply > 100 µM (inactive)

-- ask Need GI50 of C=CCC(N(C)C(=O)[C@H](Cc1ccccc1)NC(=O)OCc1ccccc1)P(=O)(Oc1ccccc1)Oc1ccccc1 (some centres undefined) , thanks.
-- reply > 100 µM (inactive)

====

# System: HOP-62
# Procedure summary: NCI tumour cell line growth inhibition, 48 h
The source made the active and inactive calls. Cut-off read from the data, not from the text of the source: active = GI50 up to about 1.1 µM and inactive = higher.
Outcome (select one): active, inactive

Solved cases below.
>>> group("CCOc1ccccc1NC(=O)CSc1nnc(Cc2ccccc2)o1")
"inactive"
>>> group("CCCCCCCCCCCCCCCCCCNc1nc(=O)n(C2CC(O)C(COP(=O)(O)OCC(COP(=O)(O)OC3C(CO)OC(n4ccc(N)nc4=O)C3O)OCCCCCCCCCCCCCCCCCC)O2)cc1F (stereo not drawn)")
"inactive"
>>> group("CC(C)CCC1(O)O[C@H]2C[C@H]3[C@@H]4CCC5CC(=O)C=C[C@]5(C)[C@H]4CC[C@]3(C)[C@H]2[C@@H]1C (stereo partly drawn)")
"inactive"
>>> group("CSc1c(C#N)c(O)nc(N)c1C(=O)Nc1ccc(Cl)cc1")
"inactive"

-- ask How did this test come out for `CC1(C)CCC2=C(O1)/C(=N\Nc1ccc(S(N)(=O)=O)cc1)c1ccccc1C2=O` ?
-- reply inactive

-- ask How did this test come out for `CN(C)c1ccc(/C=C2\CCCCCC2=O)cc1` ?
-- reply inactive

-- ask How did this test come out for `CNc1ccccc1S(=O)(=O)c1ccccc1[N+](=O)[O-]` ?
-- reply inactive

-- ask How did this test come out for O=C(COc1ccc(Br)cc1Br)N1N=C(c2ccc([N+](=O)[O-])o2)CC1(O)c1ccccc1 (stereo not drawn) ?
-- reply inactive

-- ask How did this test come out for O=C1C=C(c2ccccc2)OC1C1Sc2ccccc2NC1=O (stereo not drawn) ?
-- reply active

-- ask How did this test come out for `O=C1CSC(=S)N1` ?
-- reply inactive

-- ask How did this test come out for `CCOc1ccccc1N1CSc2nnc(-c3ccccc3)n2C1` ?
-- reply inactive

-- ask How did this test come out for `C/C(=N\NC(=O)CC(=O)Nc1ccc(C)cc1)c1cc2ccccc2oc1=O` ?
-- reply inactive

-- ask How did this test come out for `Cc1ccc(NC(=O)C(=O)CC(=O)c2sc(Nc3c(C)cccc3C)nc2C)cc1C` ?
-- reply inactive

-- ask How did this test come out for `COc1ccc(-c2csc(=[N+]3CCCCC3)s2)cc1` ?
-- reply inactive

-- ask How did this test come out for `O=[N+]([O-])c1cc([As](Br)c2ccc(O)c([N+](=O)[O-])c2)ccc1O` ?
-- reply inactive

-- ask How did this test come out for COC(=O)C1CCC(=O)N1C(c1ccc2c(c1)OCO2)c1ccc2c(c1)OCO2 (stereo not drawn) ?
-- reply inactive

-- ask How did this test come out for `O=C1CCCCCCCCCCC(=O)N2CCOCCOCCN1Cc1cccc(n1)C2` ?
-- reply inactive

-- ask How did this test come out for `O=C(CN1CCCC1)Nc1ccc2sc3ccccc3c(=O)c2n1` ?
-- reply inactive

====

# System: NCI/ADR-RES
# Procedure summary: NCI tumour cell line growth inhibition, 48 h
Active and inactive are the calls of the source. Cut-off read from the data, not from the text of the source: active = GI50 up to about 1.1 µM and inactive = higher.
Quantity: GI50

Illustrative cases are given below, each with its answer.
>>> measured_result("CC1(C)N=C(N)N=C(N)N1c1cccc(C(=O)Nc2ccc(S(=O)(=O)F)cc2)c1")
"> 100 µM (inactive)"
>>> measured_result("Nc1ccc(-c2nc3ccccc3s2)cc1I")
"> 100 µM (inactive)"
>>> measured_result("CCN(C(=O)N[C@@H](CC(C)C)C(=O)NCC(=O)OC)c1ccccc1")
"> 100 µM (inactive)"

-- ask Need GI50 of `CN(C)c1n/c(=N/Cc2ccccn2)ss1` , thanks.
-- reply > 10 µM (inactive)

-- ask Need GI50 of `O=C(CN1CCCC1)Nc1ccc2sc3ccccc3c(=O)c2n1` , thanks.
-- reply 15.5 µM (inactive)

====

# Tested on: SK-MEL-2
# Procedure summary: NCI tumour cell line growth inhibition, 48 h
The source made the active and inactive calls. Rule as the data show it: active = GI50 up to about 1.1 µM and inactive = higher.
# key: entry, value: GI50

-- ask Need GI50 of `NC(=O)c1nnsc1NC=O` , thanks.
-- reply > 100 µM (inactive)

-- ask Need GI50 of `O=c1sc(-c2nc3ccccc3[nH]2)c(/N=C/c2ccccc2)n1-c1ccccc1` , thanks.
-- reply 63 µM (inactive)

-- ask Need GI50 of COC(=O)C1CCC(=O)N1C(c1ccc2c(c1)OCO2)c1ccc2c(c1)OCO2 (stereo not given) , thanks.
-- reply > 100 µM (inactive)

====

# Test system: HT-29
# Procedure summary: NCI tumour cell line growth inhibition, 48 h
Calls of active or inactive are those of the source. Rule as the data show it: active = GI50 up to about 1.1 µM and inactive = higher. Where a SMILES comes first, the peptide text is derived from it. Peptide text beside a SMILES is read from it. * marks the point of attachment. Cbz = O=C(OCc1ccccc1)*; Boc = CC(C)(C)OC(=O)*; OBn = c1ccc(CO*)cc1
# key: entry, value: GI50

Illustrative cases are given below, each with its answer.
>>> measured_result("NC(=O)C1CCCN1C(=O)C(N)Cc1ccccc1 (stereo not drawn) (H-Phe-Pro-NH2; configuration not given here)")
"> 100 µM (inactive)"
>>> measured_result("COc1ccccc1N1C(=O)CSC1c1cccc(Oc2ccccc2)c1 (centres undefined)")
"20.1 µM (inactive)"
>>> measured_result("COC(=O)C(CCCCNC(=O)OCc1ccccc1)NC(=O)C(CCC(=O)OCc1ccccc1)NC(=O)OC(C)(C)C (centres undefined) (Boc-Glu(OBn)-Lys(Cbz)-OMe; configuration not given here)")
"> 100 µM (inactive)"
>>> measured_result("CC(=O)NCCCCNCCCNC(C)=O")
"> 100 µM (inactive)"
>>> measured_result("COc1cc2c(cc1-c1coc3cc(O)ccc3c1=O)OCO2 [CUNEATIN]")
"99.3 µM (inactive)"

-- ask Need GI50 of `CC1(C)CCC2=C(O1)/C(=N\Nc1ccc(S(N)(=O)=O)cc1)c1ccccc1C2=O` , thanks.
-- reply 14.7 µM (inactive)

-- ask Need GI50 of c1ccc(C2=C(c3ccccc3)P(c3ccccc3)C2)cc1 (centres undefined) , thanks.
-- reply > 100 µM (inactive)

-- ask Need GI50 of `Cc1cc(C)c(C(=O)c2no[n+]([O-])c2C(=O)c2c(C)cc(C)c(Br)c2C)c(C)c1Br` , thanks.
-- reply 12.3 µM (inactive)

-- ask Need GI50 of CCOC(=O)C1COc2cc(-c3cc(=O)c4ccccc4o3)ccc2O1 (centres undefined) , thanks.
-- reply 22.8 µM (inactive)

====

# Test system: SNB-75
# Procedure summary: NCI tumour cell line growth inhibition, 48 h
Activity calls are given as the source filed them. Rule as the data show it: active = GI50 up to about 1.1 µM and inactive = higher.
# key: entry, value: GI50

Illustrative cases are given below, each with its answer.
>>> measured_result("O=c1c(-c2ccccc2)c(SCCN2CCCC2)n(-c2ccccc2)c(=S)n1-c1ccccc1")
"34.4 µM (inactive)"
>>> measured_result("CCCCc1c2c(nc3c1CCCC3O)/C(=C/c1ccccc1)CCC2 (stereo unspecified)")
"35.3 µM (inactive)"
>>> measured_result("OC12c3ccccc3C3CCC4(OCCO4)C3C1c1ccccc12 (stereo unspecified)")
"39.6 µM (inactive)"
>>> measured_result("COc1cc2nc(-c3cccs3)nc(N3CCN(c4ccccc4C(F)(F)F)CC3)c2cc1OC")
"> 100 µM (inactive)"
>>> measured_result("O=C1c2ccccc2C(=O)C2C1C1C(=O)c3ccccc3C(=O)C21 (stereo unspecified)")
"57.4 µM (inactive)"
>>> measured_result("CC1(C)N=C(N)N=C(N)N1c1cccc(C(=O)Nc2ccc(S(=O)(=O)F)cc2)c1")
"> 100 µM (inactive)"

-- ask Need GI50 of CCCCC1NC=Nc2c1ccc1c2[nH]c2ccccc21 (stereo unspecified) , thanks.
-- reply 4.02 µM (inactive)

-- ask Need GI50 of `CC1(C)CCC2=C(O1)/C(=N\Nc1ccc(S(N)(=O)=O)cc1)c1ccccc1C2=O` , thanks.
-- reply 4.38 µM (inactive)

-- ask Need GI50 of `CC1c2c(Cl)nc3ccccc3c2Oc2c1c(Cl)nc1ccccc21` , thanks.
-- reply 56 µM (inactive)

-- ask Need GI50 of C=C(C)C#CC(O)(C(=O)OC1CCN(C)CC1)C(C)C (stereo unspecified) , thanks.
-- reply > 100 µM (inactive)

-- ask Need GI50 of Cc1nc2ccc(S(=O)(=O)O)cc2c(=O)n1-c1ccc(C(=O)NN2C(=O)C(Cl)C2c2ccccc2O)cc1 (stereo unspecified) , thanks.
-- reply > 100 µM (inactive)

-- ask Need GI50 of `COc1cc2c(c3c1c(=O)c1ccccc1n3C)C=CC1(CCCCC1)O2` , thanks.
-- reply 1.29 µM (inactive)

-- ask Need GI50 of OC12c3ccccc3C1(N1CCOCC1)CCCCC21OCCCO1 (stereo unspecified) , thanks.
-- reply > 100 µM (inactive)

-- ask Need GI50 of CCC(C#N)(c1ccccc1)N(CCc1ccccc1)C(=O)c1ccccc1 (stereo unspecified) , thanks.
-- reply 29.5 µM (inactive)

-- ask Need GI50 of `COc1ccc(CCNC(=O)Cc2cc(OC)c(OC)cc2CO)cc1OC` , thanks.
-- reply > 100 µM (inactive)

-- ask Need GI50 of COC(=O)C1=C(OC(=O)/C(=C/c2ccc(Cl)cc2)c2ccccc2)C(C(=O)OC)[C@@]2(O)[C@@H](C(=O)OC)[C@H](C)C[C@@H]1[C@@H]2C(=O)OC (stereo partly specified) , thanks.
-- reply 29.6 µM (inactive)

-- ask Need GI50 of CCOC(=O)C(NC(=O)CC)(Nc1ccc(F)c(Cl)c1)C(F)(F)F (stereo unspecified) , thanks.
-- reply > 100 µM (inactive)

-- ask Need GI50 of COc1cc(S(=O)(=O)Nc2nc(-c3ccc(N4C(=O)C(CC(=O)O)SC4c4cccs4)cc3)cs2)ccc1Cl (stereo unspecified) , thanks.
-- reply 17.2 µM (inactive)

-- ask Need GI50 of O=c1ccn(C2OC(CO)C(O)C2[Se]c2ccccc2)c(=O)[nH]1 (stereo unspecified) , thanks.
-- reply > 100 µM (inactive)

-- ask Need GI50 of `O=C1CSC(=S)N1` , thanks.
-- reply > 100 µM (inactive)

-- ask Need GI50 of `Cn1c2ccccc2n2c3ccccc3c(=S)c(C#N)c12` , thanks.
-- reply > 100 µM (inactive)

-- ask Need GI50 of `C/N=c1\sc2nc(C#N)c(C#N)nc2n1C` , thanks.
-- reply 19 µM (inactive)

-- ask Need GI50 of `CC(=O)N1CCN(CCCCN2c3ccccc3Sc3cc(N=[N+]=[N-])ccc32)CC1` , thanks.
-- reply 13 µM (inactive)

-- ask Need GI50 of `Cc1nc(-n2nc(-c3ccccc3)cc2-c2ccccc2)sc1C(=O)/C=C/c1cccc([N+](=O)[O-])c1` , thanks.
-- reply 5.73 µM (inactive)

-- ask Need GI50 of `O=C1/C(=C/c2ccc3c(c2)OCCO3)CCC/C1=C\c1ccc2c(c1)OCCO2` , thanks.
-- reply 24.9 µM (inactive)

-- ask Need GI50 of COC(=O)[C@H](Cc1ccccc1)NC(=O)OCC1OC(n2cc(C)c(=O)[nH]c2=O)CC1N=[N+]=[N-] (stereo partly specified) , thanks.
-- reply 78.3 µM (inactive)

-- ask Need GI50 of `O=C1CCCC(=O)N1n1c(Cc2ccccc2)n[nH]c1=O` , thanks.
-- reply > 100 µM (inactive)
